GI50 reference
Tested on: U-251
method summary: Anticancer activity against human U-251 cells assessed as cell growth inhibition measured after 48 hrs by sulforhodamine B assay
Format: functional
experimental conditions: Homo sapiens, U-251, 48 h

Task: Fill in the recorded GI50 for this compound, with U-251 as test system: `CCOC(=O)c1nn(-c2ccc(Cl)cc2)c(-c2ccc(OC)cc2)c1CNC(C)(C)C`
Result: 431 µM

Task: Fill in the recorded GI50 for this compound, with U-251 as test system: `CC(C)(C)NCc1c(C(=O)O)nn(-c2ccc(Cl)cc2)c1-c1ccc([N+](=O)[O-])cc1`
Result: > 584 µM

Task: Fill in the recorded GI50 for this compound, with U-251 as test system: `Cc1ccc(-c2c(CNC(C)(C)C)c(C(=O)O)nn2-c2ccc(Cl)cc2)cc1`
Result: > 630 µM

Task: Fill in the recorded GI50 for this compound, with U-251 as test system: `CC(C)(C)NCc1c(C(=O)O)nn(-c2ccccc2)c1-c1ccccc1`
Result: > 716 µM

Task: Fill in the recorded GI50 for this compound, with U-251 as test system: `CCOC(=O)c1nn(-c2ccc(Cl)cc2)c(-c2ccc(Br)cc2)c1CNC(C)(C)C`
Result: > 511 µM

Task: Fill in the recorded GI50 for this compound, with U-251 as test system: `CC(C)(C)NCc1c(C(=O)O)nn(-c2ccc(Cl)cc2)c1-c1ccc(Br)cc1`
Result: > 542 µM
